Data credit: patent US11464749B2

- Tested on: Klebsiella pneumoniae
- Measurement Description: Broth microdilution MIC (Example 11)
- Conditions: K. pneumoniae MMX 4684, ESBL, MEM^R
Can you tell me MIC for the items I'm about to list?
One number for each entry, in µg/mL.

Record MIC for all entries; do not skip any.
1. C[C@@H](O)[C@H]1C(=O)N2C(C(=O)O)=C(S[C@@H]3CN[C@H](C(=O)N(C)C)C3)[C@H](C)[C@H]12 [Meropenem, reference compound]
2. CC(C)(O/N=C(\C(=O)N[C@@H]1C(=O)N2C(C(=O)[O-])=C(C[n+]3ccccc3)CS[C@H]12)c1csc(N)n1)C(=O)O
3. CC(S)C(C)S.[Bi] (stereo not shown)
4. C[C@H]1COc2c(N3CCN(C)CC3)c(F)cc3c(=O)c(C(=O)O)cn1c23 [Levofloxacin, reference compound]

[8, 8, 2, 0.03]
